# System: human normal primary skin fibroblasts (Hs-68)
# procedure.text: growth inhibition of normal cells Hs-68
# Type: cell-based
# test.parameters: Hs68
pIC50: −log10 of the molar value.
Each item that follows carries a reported pIC50.
measured.property: pIC50

{"compound": "NC(Cc1ccccc1)C(=O)Nc1ccccc1-c1ccc(NC(=O)CCCCCCC(=O)NO)cc1 (centres unmarked)", "target.desc": "human normal primary skin fibroblasts (Hs-68)", "meas.value": "< 3.52"}
{"compound": "NCC(=O)Nc1ccccc1-c1ccc(NC(=O)CCCCCCC(=O)NO)cc1", "target.desc": "human normal primary skin fibroblasts (Hs-68)", "meas.value": "< 3.30"}
